Field: interaction score. Provide a value for each of the binders that follow.
# study_target: T1, 4H3777-AA
# T1 chain: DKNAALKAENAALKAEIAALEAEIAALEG
# protocol: two-hybrid library CCmax;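 note: natural log of median RNA to DNA barcode read ratio; higher means stronger binding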
# condition_description: mean of both orientations
Kindly provide the number alone.

Req: Entry DENAALEAKNAALEAKIAALKAEIAALEG [4H1449-AA] : reported interaction score = ?
Resp: -0.635

Req: Given the entry DKNAALEAEIAALEAENAALEAKIAALKG [4H3094-AA] , report its measured interaction score.
Resp: -0.696

Req: Would you mind telling me what interaction score value was observed for DKNAALKAEIAALEAKIAALEAENAALEG [4H3619-AA] ?
Resp: -1.36

Req: Entry DKIAALKAENAALKAENAALEAKIAALKG [4H2774-AA] has what interaction score?
Resp: -0.668
